# credit: patent US12246076B2

Measured tissue uptake at 1 h accompanies every entry in the list below.
Test Details: Ex vivo biodistribution in PC-3 tumor-bearing mice
Protocol Conditions: male, NRG, mouse, small intestine, iv, total radioactivity, Biodistribution Small Intestine Mean, 1 h post-injection, mice bearing PC-3 tumor xenografts, n = 4
Numbered stars: 1 amine (or outer) side, 2 acyl side, 3 side chain; on linkers, the order of the positions; unused ones are H or OH. Square brackets hold non-standard residues; d marks the D form. Peptide text beside a SMILES is read from it. * marks the point of attachment. DOTA = O=C(O)CN1CCN(CC(=O)O)CCN(CC(=O)*)CCN(CC(=O)O)CC1; Leuψ(CH2N)ThzNH2 = CC(C)C[C@@H](CN1CSC[C@H]1C(N)=O)N*; X1 = O=C(CN1CCC(N[*:1])CC1)[*:2]
Record the value in %ID/g, omitting the unit from your answer.

Sample records with tissue uptake at 1 h:
[[record]]
compound = "CC(C)C[C@@H](CN1CSC[C@H]1C(N)=O)NC(=O)[C@H](Cc1c[nH]cn1)NC(=O)CNC(=O)[C@@H](NC(=O)[C@H](C)NC(=O)[C@H](Cc1c[nH]c2ccccc12)NC(=O)[C@H](Cc1c[nH]cn1)NC(=O)[C@@H](Cc1ccccc1)NC(=O)CN1CCC(NC(=O)CN2CCN(CC(=O)O)CCN(CC(=O)O)CCN(CC(=O)O)CC2)CC1)C(C)C [^68Ga-LW01102, metal not drawn] ({DOTA}-[X1][dF]HWAVGH-{Leuψ(CH2N)ThzNH2})"
endpoint_unit = "%ID/g"
assay_value = 2.85

[[record]]
compound = "CC(C)C[C@H](NC(=O)[C@H](Cc1c[nH]cn1)NC(=O)CNC(=O)[C@@H](NC(=O)[C@H](C)NC(=O)[C@H](Cc1c[nH]c2ccccc12)NC(=O)[C@H](CCC(N)=O)NC(=O)[C@@H](Cc1ccc2ccccc2c1)NC(=O)CN1CCC(NC(=O)CN2CCN(CC(=O)O)CCN(CC(=O)O)CCN(CC(=O)O)CC2)CC1)C(C)C)C(=O)N1CSC[C@H]1C(N)=O [^68Ga-LW01029, metal not drawn]"
endpoint_unit = "%ID/g"
assay_value = 1.05


# context switch: different compound, same tissue uptake at 1 h
For reference, reported tissue uptake at 1 h for CC(C)C[C@@H](CN1CSC[C@H]1C(N)=O)NC(=O)[C@H](Cc1c[nH]cn1)NC(=O)CNC(=O)[C@@H](NC(=O)[C@H](C)NC(=O)[C@H](Cc1c[nH]c2ccccc12)NC(=O)[C@H](CCC(N)=O)NC(=O)[C@@H](Cc1ccccc1)NC(=O)CN1CCC(NC(=O)CN2CCN(CC(=O)O)CCN(CC(=O)O)CCN(CC(=O)O)CC2)CC1)C(C)C [^68Ga-LW01045, metal not drawn] stands at 1.04

====

Test Details: Ex vivo biodistribution in PC-3 tumor-bearing mice
Protocol Conditions: male, NRG, mouse, spleen, iv, total radioactivity, Biodistribution Spleen Mean, 1 h post-injection, mice bearing PC-3 tumor xenografts, n = 4
Measured tissue uptake at 1 h accompanies every entry in the list below.
Record the value in %ID/g, omitting the unit from your answer.

[[record]]
molecule = "CC(C)C[C@H](NC(=O)[C@H](Cc1c[nH]cn1)NC(=O)CNC(=O)[C@@H](NC(=O)[C@H](C)NC(=O)[C@H](Cc1c[nH]c2ccccc12)NC(=O)[C@H](CCC(N)=O)NC(=O)[C@@H](Cc1ccccc1)NC(=O)CN1CCC(NC(=O)CN2CCN(CC(=O)O)CCN(CC(=O)O)CCN(CC(=O)O)CC2)CC1)C(C)C)C(=O)N1CSC[C@H]1C(N)=O [^68Ga-LW01025, metal not drawn]"
assay_value = 0.23


# context switch: different molecule, same tissue uptake at 1 h
For reference, reported tissue uptake at 1 h for CC(C)C[C@H](NC(=O)[C@H](Cc1c[nH]cn1)NC(=O)CNC(=O)[C@@H](NC(=O)[C@H](C)NC(=O)[C@H](Cc1c[nH]c2ccccc12)NC(=O)[C@H](CCC(N)=O)NC(=O)[C@@H](Cc1ccc2ccccc2c1)NC(=O)CN1CCC(NC(=O)CN2CCN(CC(=O)O)CCN(CC(=O)O)CCN(CC(=O)O)CC2)CC1)C(C)C)C(=O)N1CSC[C@H]1C(N)=O [^68Ga-LW01029, metal not drawn] stands at 0.45
